# Tested System: GlcNAc(b1-3)Man
# Experiment Notes: glycan array binding signal (z-score within array); higher = stronger binding
# Protocol Conditions: glycan notation: IUPAC condensed, linker removed
About 410 targets per protein were measured; listed, in parts, are those with the strongest signals and a random draw of the rest.
A collection of binders and their measured glycan array binding signal (z-score)

Completed entries (count: 3):
Binder: BC2L-D C-terminal domain (Burkholderia cenocepacia), Q39MQ9_BURS3 (protein) LVIVDAVTLLSAYPEASRDPAAPTVIDGRHLYVVSPGDAAQLGHNDSRLFTGLSPGDQLHLRETALALRAEVSVLFIRFALKDAGIVAPIELEVRDAATAVPDADDLLHPSCRPLKDHYWRSDVLAAGATTCTADFAVCDRDGTVSGYFRWETSIEIAGSQPDTKQPGFKPSSDRNGNFSLPPNTAFKAIFYANAADRQDLKLFIDDAPEPAATFVGNSEDGVRLFTLNSKGGKIRIEASANGRQSATDARLAPLSAGDTVWLGWLGAEDGADADYNDGIVILQWPIT
glycan array binding signal (z-score): -0.243
//
Binder: SJCP1084 (Schistosoma japonicum) (protein) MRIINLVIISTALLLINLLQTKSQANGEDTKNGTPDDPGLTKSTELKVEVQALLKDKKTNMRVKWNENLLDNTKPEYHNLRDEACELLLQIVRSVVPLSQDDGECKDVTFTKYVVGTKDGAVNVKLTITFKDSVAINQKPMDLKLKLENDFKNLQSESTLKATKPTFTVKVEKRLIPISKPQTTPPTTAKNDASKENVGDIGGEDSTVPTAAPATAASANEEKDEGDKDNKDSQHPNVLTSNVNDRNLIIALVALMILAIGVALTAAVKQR
glycan array binding signal (z-score): 0.248
//
Binder: SSR2 (Sclerotium rolfsii) (protein) MVYKITVRVYQTNPDAFFHPVEKTVWKYANGGTWSITDDQHVLTMGGSGTSGTLRFHADNGESFTATFGVHNYKRWCDIVTNLAADETGMVINQQYYSQKNREEARERQLSNYQVKNAKGRNFQIVYTEAEGNDLHANLIIG
glycan array binding signal (z-score): -0.149

Could you now consider this next binder?
// query Need glycan array binding signal (z-score), item LecB PA14 (Pseudomonas aeruginosa) (protein) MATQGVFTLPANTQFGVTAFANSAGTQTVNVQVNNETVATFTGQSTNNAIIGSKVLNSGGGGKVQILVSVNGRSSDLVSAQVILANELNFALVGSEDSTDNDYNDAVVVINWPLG
// result -0.123
